Form field: IC50 (one value per entry).
Target: TANK-2 enzyme (Homo sapiens, UniProt Q9H2K2)
Sequence (Q9H2K2 1-1166): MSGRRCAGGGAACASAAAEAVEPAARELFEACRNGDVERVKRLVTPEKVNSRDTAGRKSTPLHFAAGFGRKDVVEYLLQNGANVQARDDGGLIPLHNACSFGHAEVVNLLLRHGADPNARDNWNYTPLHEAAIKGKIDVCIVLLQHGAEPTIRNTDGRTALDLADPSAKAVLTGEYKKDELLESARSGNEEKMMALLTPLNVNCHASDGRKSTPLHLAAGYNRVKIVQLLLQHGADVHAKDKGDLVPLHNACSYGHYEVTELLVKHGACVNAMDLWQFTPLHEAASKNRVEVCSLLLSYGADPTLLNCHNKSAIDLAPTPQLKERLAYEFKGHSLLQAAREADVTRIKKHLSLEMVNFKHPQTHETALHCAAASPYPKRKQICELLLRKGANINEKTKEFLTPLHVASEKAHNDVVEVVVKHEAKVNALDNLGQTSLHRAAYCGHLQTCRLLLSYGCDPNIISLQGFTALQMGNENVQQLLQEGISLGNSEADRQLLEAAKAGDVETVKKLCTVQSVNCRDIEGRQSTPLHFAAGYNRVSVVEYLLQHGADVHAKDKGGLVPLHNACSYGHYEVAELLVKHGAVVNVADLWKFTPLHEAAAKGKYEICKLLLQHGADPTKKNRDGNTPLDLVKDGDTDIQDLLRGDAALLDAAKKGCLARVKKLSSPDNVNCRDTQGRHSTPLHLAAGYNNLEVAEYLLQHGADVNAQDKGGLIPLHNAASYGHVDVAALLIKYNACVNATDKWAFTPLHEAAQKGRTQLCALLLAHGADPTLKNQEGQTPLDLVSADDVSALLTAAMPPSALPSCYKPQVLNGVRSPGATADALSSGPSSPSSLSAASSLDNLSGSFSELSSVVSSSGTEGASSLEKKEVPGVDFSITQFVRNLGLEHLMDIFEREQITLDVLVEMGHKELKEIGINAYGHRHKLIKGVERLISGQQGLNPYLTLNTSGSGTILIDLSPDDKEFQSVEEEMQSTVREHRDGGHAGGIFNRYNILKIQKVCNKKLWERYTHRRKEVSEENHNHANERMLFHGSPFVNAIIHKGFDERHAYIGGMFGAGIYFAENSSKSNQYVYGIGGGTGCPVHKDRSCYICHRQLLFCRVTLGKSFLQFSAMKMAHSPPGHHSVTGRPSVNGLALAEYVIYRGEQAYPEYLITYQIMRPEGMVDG

Consider the following illustrative entries.
- Molecule: "Cc1nc2sccn2c(=O)c1CCN1CCN(c2nnc(C)c3ccccc23)CC1"
  Target desc: "TANK-2 enzyme (Homo sapiens, UniProt Q9H2K2)"
  IC50: "> 10 µM"
- Molecule: "CCOC(=O)N1CCCC(Nc2n[nH]c(=O)c3ccccc23)CC1 (stereo not drawn)"
  Target desc: "TANK-2 enzyme (Homo sapiens, UniProt Q9H2K2)"
  IC50: "> 10 µM"
- Molecule: "CCOC(=O)N1CCC(Nc2nnc(Cl)c3ccc([N+](=O)[O-])cc23)CC1"
  Target desc: "TANK-2 enzyme (Homo sapiens, UniProt Q9H2K2)"
  IC50: "> 10 µM"

## Task Which IC50 is listed for O=c1[nH]nc(NC2CCNCC2)c2ccccc12 ?
## Result > 10 µM

## Task Any idea what its IC50 is? The molecule is COc1ccc(CCN2CCC(Nc3n[nH]c(=O)c4ccccc34)CC2)cc1
## Result > 10 µM

---

molecular target: PARP-1 enzyme (Homo sapiens); construct: made in house; assay: in vitro filtration assay for PARP-1 inhibitory activity; assay type: biochemical; conditions: [32P]-NAD, histones, nicked DNA; dose-response 10^-5 M to 10^-8 M; read-out: in vitro filter assay PARP-1 pIC50 (converted)
Result type: log10 IC50 (log10 of the value in µM)
Recorded IC50 (log10, µM)

// solved cases for log10 IC50 follow
- Compound: "CCOC(=O)N1[C@@H]2CC[C@H]1C[C@H](Nc1nnc(Cl)c3ccccc13)C2 [Compound 24]"
  log10 IC50: -0.41
- Compound: "CCOC(=O)N1CCC(Nc2n[nH]c(=O)c3ccccc23)CC1 [Compound 56]"
  log10 IC50: -0.11

## Task Look at this compound and give its reported log10 IC50. NC(=O)N1CCC(c2n[nH]c(=O)c3ccccc23)CC1 [Compound 6]
## Result -0.71

## Task # get_value(readout='log10 IC50', item= Cc1nnc(N2CCN(CCn3c(=O)[nH]c4ccccc4c3=O)CC2)c2ccccc12 [Compound 70] )
## Result -0.57

---

In this section we review reported IC50 values for a set of molecules.
Target: PARP-1 enzyme (Homo sapiens, UniProt P09874)
Construct: made in house
Sequence (P09874 whole entry): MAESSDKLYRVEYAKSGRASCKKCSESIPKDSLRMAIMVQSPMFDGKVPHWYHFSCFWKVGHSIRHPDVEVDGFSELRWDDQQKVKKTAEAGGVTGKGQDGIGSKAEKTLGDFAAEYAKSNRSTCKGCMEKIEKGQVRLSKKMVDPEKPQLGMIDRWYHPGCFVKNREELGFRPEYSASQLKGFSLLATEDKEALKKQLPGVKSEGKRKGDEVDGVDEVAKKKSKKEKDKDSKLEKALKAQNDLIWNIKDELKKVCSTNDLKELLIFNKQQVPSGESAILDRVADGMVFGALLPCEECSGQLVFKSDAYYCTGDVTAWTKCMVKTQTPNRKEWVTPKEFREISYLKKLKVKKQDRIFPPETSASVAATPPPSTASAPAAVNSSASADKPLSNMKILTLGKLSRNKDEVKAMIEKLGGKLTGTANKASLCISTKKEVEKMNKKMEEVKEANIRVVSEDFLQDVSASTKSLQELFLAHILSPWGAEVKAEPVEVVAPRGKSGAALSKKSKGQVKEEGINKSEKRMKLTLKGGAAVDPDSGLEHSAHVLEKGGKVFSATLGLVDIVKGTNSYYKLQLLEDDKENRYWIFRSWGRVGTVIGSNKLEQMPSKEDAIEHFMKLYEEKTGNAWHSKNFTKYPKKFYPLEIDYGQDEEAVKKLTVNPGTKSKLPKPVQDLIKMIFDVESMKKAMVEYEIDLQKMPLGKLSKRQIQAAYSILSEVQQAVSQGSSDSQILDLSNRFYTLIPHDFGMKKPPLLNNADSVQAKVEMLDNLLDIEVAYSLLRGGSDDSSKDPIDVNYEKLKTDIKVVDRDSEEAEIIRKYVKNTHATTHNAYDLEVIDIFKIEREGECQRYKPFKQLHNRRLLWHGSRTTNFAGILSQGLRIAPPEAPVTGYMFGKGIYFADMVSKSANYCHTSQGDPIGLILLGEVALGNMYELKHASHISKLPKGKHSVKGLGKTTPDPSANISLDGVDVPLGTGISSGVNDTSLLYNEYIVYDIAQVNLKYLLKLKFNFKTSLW
Assay: in vitro Scintillation Proximity Assay (SPA) for PARP-1 inhibitory activity
Type: biochemical
Conditions: [3H]-NAD+, biotinylated histones, nicked DNA; dose-response 10^-5 M to 10^-8 M; read-out: in vitro SPA assay PARP-1 pIC50 (converted)
Description: In vitro Scintillation Proximity Assay (SPA) for PARP-1 Inhibitory Activity Compounds of the present invention were tested in an in vitro assay based on SPA technology (proprietary to Amersham Pharmacia Biotech). […] The beads were allowed to sediment for at least 15 min. and plates transferred to a TopCountNXT™ (Packard) for scintillation counting, values were expressed as counts per minute (cpm). […] For each sample, the amount of cpm was expressed as a percentage of the mean cpm value of the controls. […]
The figure you give is taken to be in µM; do not add the unit.

The examples below pair each entry with its known result.
- Molecule: "Cc1nnc(N2CCN(CCn3c(=O)[nH]c4ccccc4c3=O)CC2)c2ccccc12"
  Unit info: "µM"
  Measured value: 3.44
- Molecule: "COc1ccc(CCN2CCC(Nc3n[nH]c(=O)c4ccccc34)CC2)cc1"
  Unit info: "µM"
  Measured value: 0.684
- Molecule: "Cc1nc2scc(C)n2c(=O)c1CCN1CCN(c2nnc(C)c3ccccc23)CC1"
  Unit info: "µM"
  Measured value: 3.21
- Molecule: "O=c1[nH]nc(C2CCN(CCCCOc3ccccc3)CC2)c2ccccc12"
  Unit info: "µM"
  Measured value: 0.274
- Molecule: "Cc1nc2n(c(=O)c1CCN1CCN(c3nnc(C)c4ccccc34)CC1)CCCS2"
  Unit info: "µM"
  Measured value: 3.63

## Task Hello, I am looking for reported IC50 with PARP-1 enzyme (Homo sapiens, UniProt P09874) for O=c1[nH]nc(C2CCN(CCCOc3ccc(F)cc3)CC2)c2ccccc12 . Could you help?
## Result 0.0755

## Task Notebook entry, PARP-1 enzyme (Homo sapiens, UniProt P09874) assay: IC50 of Cc1nnc(N2CCN(CCCC(c3ccc(F)cc3)c3ccc(F)cc3)CC2)c2ccccc12 = ?
## Result 1.78

## Task Kindly state the measured IC50 obtained for O=c1[nH]nc(NC2CCN(C[C@@H](O)[C@@H]3CCc4ccccc4O3)CC2)c2ccccc12 (relative stereo) with PARP-1 enzyme (Homo sapiens, UniProt P09874).
## Result 0.857

---

Output rule met for records whose melting point is lower than 200 °C, rule not met for records at or above 200 °C.

- Molecule: "CCOC(=O)N1CC[C@H](Nc2nnc(Cl)c3ccccc23)C[C@@H]1Cc1ccccc1"
  Class label: "rule met"
- Molecule: "N#CCN1CCC(c2n[nH]c(=O)c3ccccc23)CC1"
  Class label: "rule not met"
- Molecule: "O=c1[nH]nc(C2CCN(Cc3ccccc3)CC2)c2ccccc12"
  Class label: "rule not met"

With those in mind, consider the next molecule.
## Task # TODO verify melting point < 200 °C strictly for this molecule: O=c1[nH]nc(C2CCN(CC(O)COc3ccc(F)cc3)CC2)c2ccccc12 (centres unmarked)
## Result rule not met

---

List of IC50 values.
Biological target: PARP-1 enzyme (Homo sapiens, UniProt P09874)
Construct: made in house
Assay: in vitro filtration assay for PARP-1 inhibitory activity
Type: biochemical
Settings: [32P]-NAD, histones, nicked DNA; dose-response 10^-5 M to 10^-8 M; read-out: in vitro filter assay PARP-1 pIC50 (converted)
Description: In Vitro Filtration Assay for PARP-1 Inhibitory Activity Compounds of the present invention were tested in an in vitro filtration assay assessing PARP-1 activity (triggered in the presence of nicked DNA) by means of its histone poly (ADP-ribosylation activity using [^32P]-NAD as ADP-ribosyl donor. The radioactive ribosylated histones were precipitated by trichloroacetic acid (TCA) in 96-well filterplates and the incorporated [^32P] measured using a scintillation counter […]
// note: answer is a bare numeric in nM

- Compound: "CN(c1nc2ccccc2s1)C1CCN(c2nnc(Cl)c3ccccc23)CC1"
  Measured value: 296
- Compound: "NCCN1CCC(c2n[nH]c(=O)c3ccccc23)CC1"
  Measured value: 29
- Compound: "O=c1[nH]nc(C2CCN(CCCC(c3ccc(F)cc3)c3ccc(F)cc3)CC2)c2ccccc12"
  Measured value: 233
- Compound: "NC1CCN(c2n[nH]c(=O)c3ccccc23)CC1"
  Measured value: 119
- Compound: "Fc1ccc(C(CCCN2CCN(c3nnc(Cl)c4ccccc34)CC2)c2ccc(F)cc2)cc1"
  Measured value: 472

## Task Look up IC50: O=c1[nH]nc(NC2CCCN(CCCC(c3ccc(F)cc3)c3ccc(F)cc3)CC2)c2ccccc12 (stereo not drawn)
## Result 230

## Task Quick one: IC50 for O=c1[nH]nc(NC2CCCN(Cc3ccccc3)C2)c2ccccc12 (stereo not drawn) ?
## Result 217

## Task Given the entry Cc1nc2ccccn2c(=O)c1CCN1CCN(c2nnc(C)c3ccccc23)CC1 , report its measured IC50.
## Result 1050

## Task For O=c1[nH]nc(NCC2CCCN(Cc3ccccc3)C2)c2ccccc12 (stereo not drawn) , what is its reported IC50?
## Result 221
